Test system: SF-539 CNS
Experiment: NCI-60 one-dose screen, 48 h (100 = growth as untreated, 0 = no growth, -100 = all killed)
Settings: 10 µM unless noted
The panel holds about 83,000 compounds, 20% with a hit somewhere; the sample as a whole holds those more often.
Threshold 90%: growth strictly smaller gives condition met, otherwise condition not met.

1. O=C1CCC(c2c(O)cc(O)c3c(=O)c(O)c(-c4ccc(O)c(O)c4)oc23)N1 (centres undefined)    condition not met
2. O=C(Nc1cccc(-n2ccc3c(NC(=O)c4ccccc4)nccc32)c1)c1cc(N2CCOCC2)cc(C(F)(F)F)c1    condition met
3. COC(=O)c1oc2c(C(C)=O)c(OCCCN(C)C)ccc2c1C    condition not met
4. COc1ccc(N)c(S)c1    condition not met
5. [2H]c1nc(Nc2ncc(F)c(-c3cc(F)c4nc(C)n(C(C)C)c4c3)n2)c([2H])c([2H])c1CN1CCN(CC)CC1    condition met
6. COc1ccccc1P(c1ccccc1OC)c1ccccc1OC    condition not met
7. Nc1ncc(-c2ccc3ncnc(Nc4ccc(F)c(Cl)c4)c3c2)cn1    condition met
8. Cc1cccc[n+]1CCC[n+]1ccccc1C    condition not met
9. COc1ccc(/C=C2/C(=O)Nc3cc(Cl)c(-c4csc(N)n4)cc32)cc1    condition met
10. COCCNC(C(=O)c1ccccc1)c1ccccc1 (centres undefined)    condition not met
11. FC(F)(F)c1cn(CC2CNC2)c2ncnc(Cl)c12    condition not met
12. O=C(Nc1ccc(-n2ccc3c(NC(=O)c4ccccc4)ncnc32)cc1)Nc1cccc(Cl)c1Cl    condition met
13. O=c1nc(N2CCOCC2)oc2c(-c3cccc4ccccc34)cccc12    condition met
14. COc1ccc(-c2nn(-c3ccc(NC(=O)c4ccc(Cl)c(C(F)(F)F)c4)cc3)cc2-c2ccncc2)cc1Cl    condition met
15. COc1ccc(-c2nnc(SCC(=O)N3CCN(c4cc5c(cc4F)c(=O)c(C(=O)O)cn5C4CC4)CC3)o2)cc1OC    condition not met
16. COc1ccc(-c2nn(-c3cccc(Cl)c3)cc2-c2cc(-c3ccc(Br)cc3)[nH]c(=O)c2C#N)cc1    condition met
17. CC(=O)N1N=C(CCC(=O)c2nc3ccc([N+](=O)[O-])cc3[nH]2)OC1c1ccc(O)cc1 (centres undefined)    condition not met

###

System: LOX IMVI melanoma
Assay: NCI-60 one-dose screen, 48 h (100 = growth as untreated, 0 = no growth, -100 = all killed)
Conditions: 10 µM unless noted
This is part of a sample that, as a whole, favours compounds with a hit. Of some 83,000 tested, about 20% had one in any assay. The source made the active and inactive calls. The calls were made as follows: active = growth percent below 10; inactive = the rest.
observable: growth

1. CN[C@@H](CCCNC(N)=NC/C=C(/C)CCC=C(C)C)C(=O)N(C)[C@@H](CCCNC(N)=NCC=C(C)C)C(=O)N[C@H](C)[C@H](OS(=O)(=O)O)c1ccc(OS(=O)(=O)O)c(COS(=O)(=O)O)c1    99.7% (inactive)
2. COc1cc2c(/C=C3/C(=O)Nc4ccc(O)cc43)c(Cl)n(Cc3cc(OC)c(OC)c(OC)c3)c2cc1C    39.7% (inactive)
3. CCCCC(=O)Nc1nc2ccc(SCCC)cc2s1    43.2% (inactive)
4. CS(=O)(=O)OCC(COS(C)(=O)=O)C(c1ccccc1)c1ccccc1    99.7% (inactive)
5. S=C=NP1(N=C=S)=NP(N=C=S)(N=C=S)=NP(N=C=S)(N=C=S)=NP(N=C=S)(N=C=S)=N1 (stereo unspecified)    97.8% (inactive)
6. C#C[C@@]1(O)[C@@H](CO)O[C@@H](n2cc(C(F)(F)F)c3c(N)ncnc32)[C@@H]1O    -23.6% (active)
7. CCCCCC/C=N/Nc1ccc([N+](=O)[O-])cn1    83.2% (inactive)
8. COc1ccccc1N1CCN(CC(O)COc2c(Br)c(Br)c(Br)c3c2OC(C)(C)C3)CC1 (stereo unspecified)    18.5% (inactive)
9. Cc1ccc[n+](CC(=O)c2cccc3ccccc23)c1    104% (inactive)
10. CC[C@@]1(O)C(=O)OCc2c1cc1n(c2=O)Cc2c-1nc1ccccc1c2/C=N/OC(C)(C)C    -58.5% (active)
11. Cc1cc(NCCN(C(C)C)C(C)C)nc(/N=C(\N)Nc2ccc(Cl)c(C(F)(F)F)c2)n1    -70.6% (active)
12. O=C1C(Cl)=C(Nc2ccccc2)C(=O)C(Cl)=C1Nc1ccccc1    96.9% (inactive)
13. COC(=O)/C=C/C(=O)c1cc(C)cc(C)c1O    98.1% (inactive)
14. CSc1ccc(C(=O)C[n+]2cccc(C)c2)cc1    103% (inactive)
15. NCC(=O)NS(=O)(=O)OC[C@H]1O[C@@H](n2cnc3c(N)ncnc32)[C@H](O)[C@@H]1O    -45.6% (active)
16. O=c1c2ccccc2sc2c(NCCN3CCOCC3)nc3ccccc3c12    5.67% (active)
17. O=C(Nc1ccc(-n2ccc3c(NC(=O)c4ccccc4)nccc32)cc1)c1ccc(Cl)c(C(F)(F)F)c1    -28.8% (active)
18. COc1ccc(-c2nnc(SCC(=O)Nc3ccc(C(=O)/C=C/c4ccc(OC)c(OC)c4)cc3)o2)cc1    77.1% (inactive)
19. O=C(O)c1cc2ccccc2cc1Nc1ccccc1    91.8% (inactive)
20. COc1ccc(-c2nn(-c3cccc(Cl)c3)cc2-c2cc(-c3ccc(Br)cc3)[nH]c(=O)c2C#N)cc1    69.6% (inactive)
21. C=C1C(=O)O[C@H]2[C@H]1CC/C(COC(=O)CCCC(=O)OC/C1=C/CC[C@@]3(C)O[C@H]3[C@H]3OC(=O)C(=C)[C@@H]3CC1)=C\CC[C@@]1(C)O[C@@H]21    -70.3% (active)
22. C=C1C(=O)O[C@H]2[C@H]1CC/C(C(=O)Nc1ccc(OC)c(C(N)=O)c1O)=C\CC[C@@]1(C)O[C@@H]21    77.1% (inactive)
23. CCOC(=O)c1noc2c1CCc1cn(Cc3cc(OC)cc(OC)c3)cc1-2    95.5% (inactive)
24. CN1CCN(CC(=O)N(C)c2ccc(N=C(c3ccccc3)c3c(O)[nH]c4ccc(C#N)cc34)cc2)CC1    13.2% (inactive)
25. O=C(Nc1ccc(Cl)c(Cl)c1)Nc1ccc(Cl)c([N+](=O)[O-])c1    -19% (active)
26. COc1ccc2c(c1)OC(N)=C(C#N)C2c1ccc(F)c(F)c1 (stereo unspecified)    54.2% (inactive)
27. C#CC(=O)/C=C/CCCCCCC#CC(=O)CCC(=O)C#CCCCCCC/C=C/C(=O)C#C    -70.2% (active)
28. COC(=O)Nc1nc2ccc(Sc3ccccc3)cc2[nH]1    19.3% (inactive)
29. Cc1ccc(NC(=O)CN2CCOCC2)cc1Cl    101% (inactive)
30. O=C1C(SCCO)=C(SCCO)C(=O)N1c1ccc(-c2ccccc2)cc1    -45% (active)
31. O=C(Nc1ccc(-n2ccc3c(NC(=O)c4ccccc4)ncnc32)cc1)Nc1ccc(Cl)c(C(F)(F)F)c1    2.99% (active)
